Measured values drawn from paper PMC4081100 for this set.

target: GST-NTL6(1-168) (Arabidopsis thaliana, UniProt Q9SCK6 1-168); assay: universal protein binding microarray (PBM); high values mean tight binding; settings: protein: recombinant; tags: GST; chain copies: 2; dsDNA, one strand shown
Sequence (Q9SCK6 1-168): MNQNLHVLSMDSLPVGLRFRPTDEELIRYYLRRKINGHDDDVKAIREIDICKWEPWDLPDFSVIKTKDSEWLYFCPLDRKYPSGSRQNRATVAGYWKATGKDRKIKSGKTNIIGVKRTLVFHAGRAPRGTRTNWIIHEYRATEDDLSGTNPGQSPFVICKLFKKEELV
Please respond with 1 when measured binding signal is strictly beneath 0.2 E-score, and with -1 in all other cases.

Ask | Report whether reported binding signal is lower than 0.2 E-score (strictly) for TTAAGCAA
Reply | -1

Ask | Report whether reported binding signal is lower than 0.2 E-score (strictly) for CACGGCAA
Reply | 1

Ask | Report whether reported binding signal is lower than 0.2 E-score (strictly) for ATTGAGTA
Reply | 1

Ask | Report whether reported binding signal is lower than 0.2 E-score (strictly) for AATTGCGT
Reply | 1

Ask | Report whether reported binding signal is lower than 0.2 E-score (strictly) for CTAAGTTA
Reply | -1

Ask | Report whether reported binding signal is lower than 0.2 E-score (strictly) for AGGGAAAC
Reply | 1

Ask | Report whether reported binding signal is lower than 0.2 E-score (strictly) for GTAAGGAA
Reply | -1

Ask | Report whether reported binding signal is lower than 0.2 E-score (strictly) for ACACGCGA
Reply | 1

Ask | Report whether reported binding signal is lower than 0.2 E-score (strictly) for CTTACTTC
Reply | -1

Ask | Report whether reported binding signal is lower than 0.2 E-score (strictly) for GAAGTCAA
Reply | 1

Ask | Report whether reported binding signal is lower than 0.2 E-score (strictly) for ATGGTCAA
Reply | 1

Ask | Report whether reported binding signal is lower than 0.2 E-score (strictly) for AGAAGGAA
Reply | -1

Ask | Report whether reported binding signal is lower than 0.2 E-score (strictly) for GTCAACAA
Reply | 1

* * *

Molecular target: GST-NST2(1-184) (Arabidopsis thaliana, UniProt Q9M274 1-184)
Sequence: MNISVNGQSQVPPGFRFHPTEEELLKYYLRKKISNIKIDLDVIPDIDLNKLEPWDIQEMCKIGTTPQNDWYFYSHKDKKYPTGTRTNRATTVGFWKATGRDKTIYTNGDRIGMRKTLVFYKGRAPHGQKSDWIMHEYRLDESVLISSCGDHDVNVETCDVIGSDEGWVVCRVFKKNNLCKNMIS
Assay: universal protein binding microarray (PBM); transcription factors of Arabidopsis thaliana; high values mean tight binding
Details: protein: recombinant; tags: GST; chain copies: 2; dsDNA, one strand shown
OBSERVED PROPERTY: binding signal (E-score)
Respond numerically; units are E-score and should not be typed.

Ask | Report binding signal for CTAGCGTA please.
Reply | 0.168

Ask | Report binding signal for GACGTGTA please.
Reply | 0.193

Ask | Report binding signal for ACACTCAA please.
Reply | 0.184

Ask | Report binding signal for ACACGTCT please.
Reply | 0.168

Ask | Report binding signal for CTAAGTAA please.
Reply | 0.225

Ask | Report binding signal for TTAAGGAA please.
Reply | 0.139

Ask | Report binding signal for TACGTCAA please.
Reply | 0.341

Ask | Report binding signal for ATTGCTTC please.
Reply | 0.259

Ask | Report binding signal for ACACTCCA please.
Reply | 0.226

Ask | Report binding signal for ATCGCGTA please.
Reply | 0.211

Ask | Report binding signal for ACGGAAGC please.
Reply | 0.257

Ask | Report binding signal for ACCTTTCC please.
Reply | 0.0986

Ask | Report binding signal for GTTGAGTA please.
Reply | 0.279

Ask | Report binding signal for ACAAGTCA please.
Reply | 0.0664

Ask | Report binding signal for ACGGCACG please.
Reply | 0.133

Ask | Report binding signal for ATTACGCA please.
Reply | 0.292

Ask | Report binding signal for ACGTAATA please.
Reply | 0.298

Ask | Report binding signal for ACGCCAAC please.
Reply | 0.227

Ask | Report binding signal for AGGGTAAA please.
Reply | 0.14

Ask | Report binding signal for GTTACTTA please.
Reply | 0.25

Ask | Report binding signal for ACGCAAGT please.
Reply | 0.291

Ask | Report binding signal for ACGCAATC please.
Reply | 0.384

Ask | Report binding signal for AAATACGT please.
Reply | 0.209

Ask | Report binding signal for GTGGAGTA please.
Reply | 0.242

Ask | Report binding signal for GTTGCTTA please.
Reply | 0.327

Ask | Report binding signal for CACGCAAG please.
Reply | 0.358

Ask | Report binding signal for AGGAAAGC please.
Reply | 0.0888

Ask | Report binding signal for ACGTAACG please.
Reply | 0.272

Ask | Report binding signal for ACACGATA please.
Reply | 0.27

Ask | Report binding signal for TACACGTA please.
Reply | 0.198

Ask | Report binding signal for AGTCAACA please.
Reply | 0.0624

Ask | Report binding signal for GAAACGTA please.
Reply | 0.212

Ask | Report binding signal for CCACGCCA please.
Reply | 0.0528

Ask | Report binding signal for GTTCCGTA please.
Reply | 0.179

Ask | Report binding signal for ACGCTTCC please.
Reply | 0.206

Ask | Report binding signal for ATTTTGAC please.
Reply | 0.0826

Ask | Report binding signal for ATTACGTA please.
Reply | 0.331

Ask | Report binding signal for ATTACTTA please.
Reply | 0.296

Ask | Report binding signal for ATAGCGTA please.
Reply | 0.355

Ask | Report binding signal for ACAAGTTA please.
Reply | 0.194

Ask | Report binding signal for ATGTCGTG please.
Reply | 0.0589

Ask | Report binding signal for CACGCTAG please.
Reply | 0.156

Ask | Report binding signal for AGTTACGC please.
Reply | 0.245

Ask | Report binding signal for GTACGCCA please.
Reply | 0.225

Ask | Report binding signal for ATACGTAA please.
Reply | 0.331

Ask | Report binding signal for GCACGTCA please.
Reply | 0.229

Ask | Report binding signal for ATAAGTAA please.
Reply | 0.29

Ask | Report binding signal for GTACGGAA please.
Reply | 0.138

Ask | Report binding signal for ACGTTACG please.
Reply | 0.287

Ask | Report binding signal for GTACGGCA please.
Reply | 0.178

Ask | Report binding signal for ACGTAACA please.
Reply | 0.345

Ask | Report binding signal for GCGTATAA please.
Reply | 0.285

Ask | Report binding signal for GACGTAAA please.
Reply | 0.333

Ask | Report binding signal for TTACGAAA please.
Reply | 0.227

Ask | Report binding signal for CTACGTCA please.
Reply | 0.31

Ask | Report binding signal for AAAGTCAG please.
Reply | 0.085

Ask | Report binding signal for AAGCAACA please.
Reply | 0.342

Ask | Report binding signal for CTTGACCA please.
Reply | 0.1

Ask | Report binding signal for ACGCAAAC please.
Reply | 0.357

Ask | Report binding signal for ATTTCCCC please.
Reply | 0.17

Ask | Report binding signal for CACGTTTC please.
Reply | 0.286

Ask | Report binding signal for AAGCAACC please.
Reply | 0.349

Ask | Report binding signal for GGAGGTAA please.
Reply | 0.106

Ask | Report binding signal for AATTCCGT please.
Reply | 0.179

Ask | Report binding signal for AATTGCGT please.
Reply | 0.294

Ask | Report binding signal for TAACGTGA please.
Reply | 0.257

Ask | Report binding signal for AAGGAAGC please.
Reply | 0.185

Ask | Report binding signal for ATTGAGTA please.
Reply | 0.312

Ask | Report binding signal for CTACACGC please.
Reply | 0.235

Ask | Report binding signal for GCGTGTTA please.
Reply | 0.178

Ask | Report binding signal for CAAGTAAC please.
Reply | 0.298

Ask | Report binding signal for ACAGGGAA please.
Reply | 0.0924

Ask | Report binding signal for GGAAGTAA please.
Reply | 0.248

Ask | Report binding signal for CTTGCGTA please.
Reply | 0.332

Ask | Report binding signal for ACGTTACC please.
Reply | 0.331

Ask | Report binding signal for AACACGCC please.
Reply | 0.144

Ask | Report binding signal for AACGTGTA please.
Reply | 0.265

Ask | Report binding signal for CCCCACCC please.
Reply | 0.182

Ask | Report binding signal for AAGCGTGT please.
Reply | 0.192

Ask | Report binding signal for AACACGTT please.
Reply | 0.222

Ask | Report binding signal for TGCACGCA please.
Reply | 0.211

Ask | Report binding signal for TAAGGAAA please.
Reply | 0.152

Ask | Report binding signal for TGAAGCAA please.
Reply | 0.314

Ask | Report binding signal for AGACACGC please.
Reply | 0.107

Ask | Report binding signal for GTAAGGAA please.
Reply | 0.271

Ask | Report binding signal for ATTTCCTC please.
Reply | 0.115

Ask | Report binding signal for AAGGTAAG please.
Reply | 0.144

Ask | Report binding signal for GCGTCAAC please.
Reply | 0.0734

Ask | Report binding signal for GTAGTCAA please.
Reply | 0.112
